Target: T1, LAIR1 on LAIR1 reporter cells (human, UniProt Q6GTX8 22-165, limits assumed); also: test concentration or dose not given here
T1 chain: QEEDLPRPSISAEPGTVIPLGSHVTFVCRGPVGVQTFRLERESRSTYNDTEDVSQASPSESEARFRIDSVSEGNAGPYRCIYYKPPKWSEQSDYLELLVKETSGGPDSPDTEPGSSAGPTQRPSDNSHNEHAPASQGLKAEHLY
Assay: cell-based or functional assay
EXPERIMENTAL ENDPOINT: GFP+ of LAIR1 reporter cells, Collagen I coated

LA-94 (antibody, V domains shown, Rabbit monoclonal IgG; Called an agonist antibody; also called mAb LA-94; agonist Ab LA-94) VH: EQSLEESEGRLVTPGTPLTLTCTASGFSLSGYHMSWVRQAPGKGLEYIGYISERGTSYYANWAKGRFTVSKSSSSTVVLSIISPTAEDTATYFCARYGGGDSAFILWGPGTLVTISS VL: ELVMTQTPASVSGPVGGTVTIKCQASHNIDNSLAWYQQKPGQPPKLLIYKASTLASGVSSRFKGSGSGTEYTLTISDLECADAATYFCQGTIGLNSGCAFGGGTEVEIK: > 40%
LA-235 (antibody, V domains shown, Rabbit monoclonal IgG; Called an antagonist antibody) VH: SSSVEESEGRLVTPGTPLTLTCTVSGFSLSSYTMGWVRQAPGEGLEWIGTTSNDGSTYYASWAKGRFTISKTSSTTVDLMMTSLTTEDTATYFCVRGTNIRSLWGPGTLVTISS VL: ELVMTQTPASVEAAVGGTVTIKCQASQSIGSNLAWYQQKPGQPPKLLIYLASALASGVSSRFKGSGSGSDFTLTISDLECADAATYYCQCTYGSSNNNNYGDPFGGGTEVEIK: < 5%
LA-219 (antibody, V domains shown, Rabbit monoclonal IgG; Called a potential antagonist antibody) VH: EQSVESGGGLITPGGTLTLTCTASGFTVTRYYMNWVRQAPGKGLEWIGYIYASSKTYYANWAKGRFTISKTSTTVDLKMTSLTAEDTGTYFCARGGVGNSGLNLDLWGPGTLVTISS VL: ELDMTQTPASVSEPVGGTVTIKCQASQSIGSWLAWYQQKPGQPPKLLIYQASRLASGVSSRFGGSGSGTEFTLTISDLECADAATYYCQQAEYSGDVENTFGGGTEVVVK: < 5%
LA-192 (antibody, V domains shown, Rabbit monoclonal IgG; Called an agonist antibody) VH: EQSLEESGGRLVTPGTPLTLTCTASGFSLSSYYMTWVRQAPGKGLEWIGYMHTGGGVVYASWATGRFTISRTSTTVDLKITSPTTEDTATYFCARSHAGYSTINRLDLWGVGTLVTISS VL: ELDLTQTPSSVSAAVGGTVTISCQSSPSVYTNNLSWFQQKPGQPPKLLIYDASKLESGVPSRFRGSGSGTQFTLTISDVQCDDAATYYCAGAYLSDSDTTFGGGTELEIK: > 40%

Values were extracted from patent US20190338026A1.
